- TGT: EcRecQ catalytic core D312A (Escherichia coli, UniProt P15043 1-523, D312A)
- METHOD_NOTES: fluorescence anisotropy; apparent Kd; 1 mM Mg2+; 20 mM Tris-HCl pH 8.0, 100 mM NaCl, 1 mM MgCl2, 1 mM 2-mercaptoethanol, 0.1 mg/mL BSA, 4% glycerol; 5 nM DNA, 30 min at room temperature, read at 25 C (G4 folded in 10 mM Tris-HCl pH 8.0, 100 mM KCl)
- STATED_CONDITIONS: protein: recombinant; tags: N-terminal His tag removed (thrombin); label: 3' FAM on Duplex 1; 18 bp, 3' overhang 12 nt on strand 1
MEASUREMENT_KIND: pKd
Please express pKd as -log10 of the molar concentration.

Name the recorded pKd for Duplex 1/Duplex 2 (dsDNA) DNA 1: GCGTGGGTAATTGTGCTTCAATGGACTGAC DNA 2: AAGCACAATTACCCACGC .
6.55

// provenance: paper PMC6180126
